# protocol.text: chemical genetic growth profiling, strain panel (AID 1159580);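 also: tested at 20 µM; growth read once vehicle control cultures reached saturation at 30 °C; lower values mean less growth of the strain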
# reported.conditions: S. cerevisiae deletion strains, growth OD, locus YLR221C, strain rsa3
The whole screen tested about 5,500 compounds, of which about 2,000 (36%) were called active. About 18% were inconclusive and are not listed. Rule as the data show it: active = normalized growth mostly below about 0.91 (no sharp cut-off); inconclusive = no clear call, values can overlap the other calls; inactive = mostly above about 0.92. Some of the results follow.
Your reply should match one of these outcome classes. active, inactive

compound="CCC(=O)O[C@H]1CCC2C3CCc4cc(O)ccc4C3CC[C@@]21C (stereo not given in full)" class_label=inactive
compound="CC(=O)Oc1ccc2c(c1)CCC1C2CC[C@@]2(C)C1CC[C@@H]2OC(C)=O (stereo not given in full)" class_label=inactive
compound=O=c1cc(-c2ccc(O)cc2)oc2cc(O[C@@H]3O[C@H](CO)[C@@H](O)[C@H](O)[C@H]3O[C@@H]3OC[C@](O)(CO)[C@H]3O)cc(O)c12 class_label=inactive

Per the records of this test, what outcome belongs to CC(C(=O)O)c1ccc(N2Cc3ccccc3C2=O)cc1 (stereo not given) ? inactive

Per the records of this test, what outcome belongs to `CC(C)=CCC1=C(O)c2ccccc2C(=O)C1=O` ? active
